# Method notes: basal CRE-LacZ reporter activity in PC12 – cell-based, unstimulated, primary screen (AID 1145)
# Stated conditions: no forskolin, luminescence, 4.5 h, higher = more signal, called active from +8 up or from −8 down
Observed property: z-score
Give bare numbers.

The cases that follow already have their z-score on record.
CN1C(=O)[C@@H]2[C@@H](CC(COc3ccccc3)=C3[C@@H](CCc4ccccc4)OB(O)C[C@@H]32)C1=O    1.76
CCOC(=O)C[C@H]1[C@H](OC(=O)Cc2ccc3c(c2)OCO3)[C@@H](NC(=O)Cc2ccc(OC)cc2)c2cc(OCCCO)ccc2N1C(=O)Cc1ccc(OC)cc1    1.52
[N-]=[N+]=NCc1ccccc1[C@@H]1OC(c2ccc(OCCCO)cc2)=N[C@]1(Cc1ccccc1N=[N+]=[N-])C(=O)NCC(O)CO (some centres not stated)    0.47
COc1ccc(C(O)C2C=CC3C(=O)N(c4ccccc4)C(=O)C3N2Nc2ccc([N+](=O)[O-])cc2)c2ccccc12 (configuration not stated)    -0.228
CC(=O)NCCCC[C@@H]1NC(=O)[C@H]2C[C@@H](C(=O)NCCCCCCNC(=O)CS)[C@@H](c3cccc(OCCO)c3)N2C1=O    -0.813

Working through the 2 compounds below one at a time, give z-score for each.
1. CCOC(=O)C1=CC[C@@H](c2ccccc2)N(S(=O)(=O)c2ccc(C)cc2)[C@H]1c1ccccc1I
2. COCCOC(=O)N1C(=O)[C@@]2(c3cc(C#CCCO)ccc31)[C@H](C(N)=O)[C@H]1C(=O)O[C@H](c3ccccc3)[C@H](c3ccccc3)N1[C@@H]2c1ccccc1OCCO

Response line:
[0.566, 0.0695]
